All figures here come from patent US20240376084A1.

molecular target: S. aureus Alpha hemolysin (Staphylococcus aureus); experiment: cell-based; details: A549-LDH Assay activity
Sequence (P09616 27-319 limits assumed): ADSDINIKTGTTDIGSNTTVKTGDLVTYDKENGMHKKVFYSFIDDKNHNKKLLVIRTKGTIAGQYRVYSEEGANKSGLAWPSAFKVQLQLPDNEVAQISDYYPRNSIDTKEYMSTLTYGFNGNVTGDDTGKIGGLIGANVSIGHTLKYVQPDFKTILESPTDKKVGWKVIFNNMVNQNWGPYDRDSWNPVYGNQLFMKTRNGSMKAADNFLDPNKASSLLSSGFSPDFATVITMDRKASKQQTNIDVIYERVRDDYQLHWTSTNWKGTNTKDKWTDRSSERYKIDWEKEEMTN
PROPERTY_NAME: EC50

Some molecules with known EC50 results, for comparison:
{"SMILES_NOTATION": "Cc1cc2[nH]c(=O)c(=O)[nH]c2cc1S(=O)(=O)Nc1ccc(-c2cccc(C(N)=O)c2)c(Cl)c1", "TEST_TARGET": "S. aureus Alpha hemolysin (Staphylococcus aureus)", "VALUE_REPORTED": "30 to 100 nM"}
{"SMILES_NOTATION": "CC(=O)Nc1cc(-c2ccc(NS(=O)(=O)c3cc4[nH]c(=O)c(=O)[nH]c4cc3C)cc2C(F)(F)F)ccc1O", "TEST_TARGET": "S. aureus Alpha hemolysin (Staphylococcus aureus)", "VALUE_REPORTED": "100 to 1000 nM"}
{"SMILES_NOTATION": "COc1cc2[nH]c(=O)c(=O)[nH]c2cc1S(=O)(=O)Nc1ccc(OC(F)F)cc1", "TEST_TARGET": "S. aureus Alpha hemolysin (Staphylococcus aureus)", "VALUE_REPORTED": "100 to 1000 nM"}
{"SMILES_NOTATION": "Cc1cc2[nH]c(=O)c(=O)[nH]c2cc1S(=O)(=O)Nc1ccc(-c2ccccc2F)c(Cl)c1", "TEST_TARGET": "S. aureus Alpha hemolysin (Staphylococcus aureus)", "VALUE_REPORTED": "30 to 100 nM"}
{"SMILES_NOTATION": "Cc1cc2[nH]c(=O)c(=O)[nH]c2cc1S(=O)(=O)Nc1ccc2c(c1)CCCC2", "TEST_TARGET": "S. aureus Alpha hemolysin (Staphylococcus aureus)", "VALUE_REPORTED": "100 to 1000 nM"}

Give EC50 for all molecules that follow.
1. Cc1cc2[nH]c(=O)c(=O)[nH]c2cc1S(=O)(=O)Nc1ccc(-c2cccc(N3CCC3)c2)c(Cl)c1
2. COc1cc2[nH]c(=O)c(=O)[nH]c2cc1S(=O)(=O)Nc1ccc(Br)cc1
3. Cc1cc2[nH]c(=O)c(=O)[nH]c2cc1S(=O)(=O)Nc1ccc(C2=CCCCC2)c(Br)c1
4. Cc1cc2[nH]c(=O)c(=O)[nH]c2cc1S(=O)(=O)Nc1cc(C)c(-c2ccco2)c(C)c1
5. Cc1nc2ccc(-c3ccc(NS(=O)(=O)c4cc5[nH]c(=O)c(=O)[nH]c5cc4C)cc3Cl)cc2o1

Output:
["30 to 100 nM", "100 to 1000 nM", "30 to 100 nM", "< 30 nM", "< 30 nM"]

Dear colleague, could you send me EC50 for each of the items below? Thanks.
1. Cc1cc2[nH]c(=O)c(=O)[nH]c2cc1S(=O)(=O)Nc1ccc(-c2ccc(F)c(F)c2F)c(Cl)c1
2. O=c1[nH]c2cc(C3CC3)c(S(=O)(=O)Nc3cnc(-c4ccc(F)cc4)c(Cl)c3)cc2[nH]c1=O
3. Cc1cc2[nH]c(=O)c(=O)[nH]c2cc1S(=O)(=O)Nc1ccc(-c2ccccc2N(C)C)c(Cl)c1
4. Cc1cc2[nH]c(=O)c(=O)[nH]c2cc1S(=O)(=O)Nc1ccc(-c2cc[nH]c(=O)c2)c(Cl)c1

Output:
1: 30 to 100 nM; 2: 100 to 1000 nM; 3: 100 to 1000 nM; 4: 100 to 1000 nM

Recorded EC50 (molecule `Cc1cn2ccc(-c3ccc(NS(=O)(=O)c4cc5[nH]c(=O)c(=O)[nH]c5cc4C)cc3Cl)cc2n1` ): 30 to 100 nM
